test: Evaluation of solubility of compound for solvent (30 mg in 0.7 mL, visually observed); format: physicochemical; settings: organic solvent or mixture, thermodynamic from solid; 30 mg in 0.7 mL methanol, room temperature, visual; read-out: Solubility Methanol
Attribute measured: solubility

CCCCn1c(=O)c(C(=O)c2ccccc2)c2c3c(c(Nc4ccc(C)cc4)ccc31)C(=O)c1ccccc1-2 | < 42.9 mg/mL

Working through the 2 molecules below one at a time, give solubility for each.
1. Cc1ccc(Nc2ccc3c4c(cc(=O)n3C)-c3ccccc3C(=O)c24)cc1
2. Cn1c(=O)cc2c3c(c(Nc4ccccc4)ccc31)C(=O)c1ccccc1-2

< 42.9 mg/mL
< 42.9 mg/mL

###

Please respond with reported solubility for every item in the list.
test: Evaluation of solubility of compound for solvent (30 mg in 0.7 mL, visually observed); format: physicochemical; details: organic solvent or mixture, thermodynamic from solid; 30 mg in 0.7 mL chloroform, room temperature, visual; read-out: Solubility Chloroform

Give one value of solubility per listed molecule.
1. Cn1c(=O)cc2c3c(c(Nc4ccccc4)ccc31)C(=O)c1ccccc1-2
2. CCCCn1c(=O)c(C(=O)c2ccccc2)c2c3c(c(Nc4ccc(C)cc4)ccc31)C(=O)c1ccccc1-2
3. Cc1ccc(Nc2ccc3c4c(cc(=O)n3C)-c3ccccc3C(=O)c24)cc1

["< 42.9 mg/mL", "< 42.9 mg/mL", "< 42.9 mg/mL"]

Numbers sourced from patent US8951340B2.
